meta.source: patent US20220380445A1

Documented kon across a set of binders
target: mouse serum albumin (mouse, UniProt P07724 25-608); test: ProteOn kinetic analysis
Response body: numeric value in M⁻¹ s⁻¹, unit text excluded.

Consider the worked cases shown below.
binder: SEQ ID NO 145 (VHH, also called T at position 30) VHH: DVQLVESGGGVVQPGGSLRLSCAASGFTFTSFGMSWVRQAPGKGPEWVSSISGSGSDTLYADSVKGRFTISRDNSKNTLYLQMNSLRPEDTAAYYCTIGGSLSRSGQGTLVTVSS
kon (M⁻¹ s⁻¹): 750000

binder: SEQ ID NO 129 (VHH, also called T at position 30) VHH: DVQLVESGGGVVQPGGSLRLSCAASGFTFTSFGMSWVRQAPGKGPEWVSSISGSGSDTLYADSVKGRFTISRDNSKNTLYLQMNSLRPEDTATYYCTIGGSLSRSGQGTLVTVSS
kon (M⁻¹ s⁻¹): 770000

binder: SEQ ID NO 127 (VHH, also called T at position 30) VHH: DVQLVESGGGVVQPGGSLRLSCAASGFTFTSFGMSWVRQAPGKGPEWVSSISGSGSDTLYADSVKGRFTISRDNSKNTLYLQMNSLRPEDTALYYCTIGGSLSRSGQGTLVTVSS
kon (M⁻¹ s⁻¹): 820000

Consider now this further binder.
INPUT: Given SEQ ID NO 10 (VHH, also called R at position 30) VHH: EVQLVESGGGVVQPGGSLRLSCAASGFTFRSFGMSWVRQAPGKGPEWVSSISGSGSDTLYADSVKGRFTISRDNSKNTLYLQMNSLRPEDTALYYCTIGGSLSRSSQGTLVTVSS , state its recorded kon.
OUTPUT: 1.1e+06
